Biological target: Cytochrome P450 2D6 (Homo sapiens) (UniProt P10635)
Sequence (P10635 whole entry, looked up): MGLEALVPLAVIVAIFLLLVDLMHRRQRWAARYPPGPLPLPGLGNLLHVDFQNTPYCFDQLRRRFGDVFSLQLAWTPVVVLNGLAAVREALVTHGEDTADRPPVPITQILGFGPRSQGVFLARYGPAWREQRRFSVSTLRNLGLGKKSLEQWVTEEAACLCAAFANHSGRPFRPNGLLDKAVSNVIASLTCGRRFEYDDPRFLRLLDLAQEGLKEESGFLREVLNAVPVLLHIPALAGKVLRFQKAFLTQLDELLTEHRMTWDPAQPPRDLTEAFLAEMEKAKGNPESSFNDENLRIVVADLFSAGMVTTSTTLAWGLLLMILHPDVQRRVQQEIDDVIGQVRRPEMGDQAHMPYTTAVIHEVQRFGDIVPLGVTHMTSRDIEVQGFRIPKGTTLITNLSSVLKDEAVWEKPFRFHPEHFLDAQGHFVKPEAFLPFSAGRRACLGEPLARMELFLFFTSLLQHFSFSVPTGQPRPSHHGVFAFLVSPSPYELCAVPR
Assay: Cytochrome P450 Family 2 Subfamily D Member 6 (CYP2D6) small molecule antagonists: luciferase reporter qHTS assay (AID 1671196); note: nearly all actives have a fitted effect of over 50% in size
Details: P450-Glo CYP2D6 enzyme assay, luciferin luminescence, 1 h; series mostly up to 115 µM
Records with an inconclusive call do not appear. Active and inactive are the calls of the source. Calls come from the whole dose curve; as a rule, active = well fitted inhibition curve with a large enough effect in the repeat runs; inconclusive = weak or mixed curves; inactive = no such curve, though single readings can be large or run the other way.
Classes used: true (1) = active, false (0) = inactive

{"Molecule": "c1cc(N(CC2CO2)CC2CO2)ccc1OCC1CO1 (stereo not given)", "Assigned category": "true (1)"}
{"Molecule": "COC(=O)c1ccccc1", "Assigned category": "false (0)"}
{"Molecule": "O=C(OCc1ccccc1)c1ccccc1O", "Assigned category": "false (0)"}
{"Molecule": "CCOC(=O)C(C#N)=C(c1ccccc1)c1ccccc1", "Assigned category": "false (0)"}
{"Molecule": "CC(C)OC(=O)C(C)(C)Oc1ccc(C(=O)c2ccc(Cl)cc2)cc1", "Assigned category": "false (0)"}
{"Molecule": "O=C(/C=C/c1ccccc1)OCc1ccccc1", "Assigned category": "false (0)"}
{"Molecule": "Cc1ccc(C(=O)c2cc(O)c(O)c([N+](=O)[O-])c2)cc1", "Assigned category": "false (0)"}
{"Molecule": "CC1=CC2C3CC(C=C3C)C2C1 (stereo not given)", "Assigned category": "false (0)"}
{"Molecule": "COc1ccc(OC)c(C(O)CNC(=O)CN)c1 (stereo not given)", "Assigned category": "false (0)"}
{"Molecule": "CCCCOCCOCCOCCO", "Assigned category": "false (0)"}
{"Molecule": "CC(=O)C1(C)CC2=C(CCCC2(C)C)CC1C (stereo not given)", "Assigned category": "false (0)"}
{"Molecule": "CC(C)OC=O", "Assigned category": "false (0)"}
{"Molecule": "COc1c(Cl)c(Cl)c(Cl)c(Cl)c1Cl", "Assigned category": "false (0)"}
{"Molecule": "CCOCCOCCO", "Assigned category": "false (0)"}
{"Molecule": "Clc1nc(Cl)c(Cl)c(Cl)c1Cl", "Assigned category": "false (0)"}
